Source: the supplement of paper PMC10307832

- Test system: NCI-H23
- assay_name: relative viability (nuclei count vs DMSO), 5 days (fraction); higher = more cells survive
- condition: first compound 0.01 µM
endpoint_label: relative viability
I'd appreciate a reply containing only the number, no unit.

Problem: Param item = O=c1cc(N2CCOCC2)oc2c(-c3cccc4c3sc3ccccc34)cccc12 + NC(=O)Nc1cc(-c2cccc(F)c2)sc1C(=O)N[C@H]1CCCNC1 [AZD7762] (partner 0.2 µM) ; retrieve measured relative viability.
Result: 0.306

Problem: Param item = CCN(CC)CCCCNc1ncc2cc(-c3cc(OC)cc(OC)c3)c(NC(=O)NC(C)(C)C)nc2n1 + Nc1ncn([C@H]2C[C@H](O)[C@@H](CO)O2)c(=O)n1 [Decitabine] (partner 2 µM) ; retrieve measured relative viability.
Result: 0.297

Problem: Param item = CCN(CC)CCCCNc1ncc2cc(-c3cc(OC)cc(OC)c3)c(NC(=O)NC(C)(C)C)nc2n1 + CC(=O)c1c(C)c2cnc(Nc3ccc(N4CCNCC4)cn3)nc2n(C2CCCC2)c1=O [Palbociclib] (partner 0.5 µM) ; retrieve measured relative viability.
Result: 0.534

Problem: Param item = CCN(CC)CCCCNc1ncc2cc(-c3cc(OC)cc(OC)c3)c(NC(=O)NC(C)(C)C)nc2n1 + COc1cc2c(Oc3ccc(NC(=O)C4(C(=O)Nc5ccc(F)cc5)CC4)cc3F)ccnc2cc1OCCCN1CCOCC1 [Foretinib] (partner 0.25 µM) ; retrieve measured relative viability.
Result: 1.01
